Tested on: T cell blast formation in human blood
assay_details: In vitro inhibition of T cell blast formation in human blood (human whole blood blast formation, PHA stimulated, flow cytometry)
Type: cell-based
protocol_conditions: Test Dose 1 × 10^−6 (unit not given), 72 hours, mean where multiple measurements
readout_type: % Inhibition of T cell blast formation (%)
Write down the numeric answer in % and omit the unit.

Some molecules with recorded % Inhibition of T cell blast formation:
>>> meas_value("O=C(c1ccc(NC(=O)C2CC(c3cccnc3)=NO2)cc1)c1cccs1 (centres unmarked) [Compound 490]")
58
>>> meas_value("CCCCOC(c1ccccc1)c1ccc(NC(=O)C2CC(c3cccnc3)=NO2)cc1.Cl (centres unmarked) [Compound 417]")
42
>>> meas_value("O=C(Nc1ccc(C(Nc2ccccn2)c2ccccc2)cc1)C1CC(c2cccnc2)=NO1 (centres unmarked) [Compound 99]")
83
>>> meas_value("CC(=O)Nc1ccccc1NC(c1ccccc1)c1ccc(NC(=O)C2CC(c3cccnc3)=NO2)cc1 (centres unmarked) [Compound 174]")
42
>>> meas_value("COc1cc(CNC(=O)c2ccc(NC(=O)C3CC(c4cccnc4)=NO3)cc2)cc(OC)c1OC (centres unmarked) [Compound 281]")
74

Q: Bench note: what % Inhibition of T cell blast formation did CN1N=C(c2ccc(NC(=O)C3CC(c4cccnc4)=NO3)cc2)CC1c1ccccc1 (centres unmarked) [Compound 459] show?
Result: 77

Q: Param item: O=C(Nc1ccc(C(NC2CCN(Cc3ccccc3)CC2)c2ccccc2)cc1)C1CC(c2cccnc2)=NO1 (centres unmarked) [Compound 104]
Result: 60

Q: Param item: COc1cc(S(N)(=O)=O)ccc1NC(c1ccccc1)c1ccc(NC(=O)C2CC(c3cccnc3)=NO2)cc1 (centres unmarked) [Compound 119]
Result: 54
